- assayed-system: T1, Recombinant human CD137 (R&D systems) (human, UniProt Q07011 24-186, biotinylated with EZ-Link Sulfo-NHS-LC-LC-Biotin)
- T1 construct: Bought protein; also called human CD137 protein; TNFRSF9
- measurement-protocol: SPR (Biacore), biotinylated human CD137 on streptavidin chip
pKd: −log10 of the molar value. Starred links: 1 amine or outer side, 2 acyl side, 3 side chain; linkers in the order of their positions; H or OH if unused. Positions of bridges follow the written chain, without caps; N, C: chain ends. Non-standard residues stand in square brackets, D forms with d. Chains are numbered I, II in the order given. No end group written: not given here. *: point of attachment. TATA = O=C(CC[*:1])N1CN(C(=O)CC[*:2])CN(C(=O)CC[*:3])C1; Dap(PYA) = diaminopropionic acid bearing 4-pentynoyl; 1Nal = N[C@@H](Cc1cccc2ccccc12)C(=O)O; Hyp = O=C(O)[C@@H]1C[C@@H](O)CN1; hArg = N=C(N)NCCCC[C@H](N)C(=O)O; tBuAla = CC(C)(C)C[C@H](N)C(=O)O; Nle = CCCC[C@H](N)C(=O)O; Pent4ynoyl = C#CCCC(=O)*
# key: entry, value: pKd

- binder: "heterotandem bicyclic peptide complex BCY10573 (linker I:1-I:5-I:15, II:1-II:8-II:15 via TATA; not fully specified (C-terminus); also: linker to a chain's N/C-terminus via PEG5) peptide 1: CP[1Nal][dD]CM[hArg]DWSTP[Hyp]WC peptide 2: Ac-C[tBuAla]PE[dA]PYCFADPY[Nle]C-{Dap(PYA)}"
  pKd: 8.47
- binder: "heterotandem bicyclic peptide complex BCY10572 (linker I:1-I:5-I:15, II:1-II:8-II:15 via TATA; not fully specified (C-terminus, bridges); also: chains joined by PEG5 linker on chain 1 N-terminus, triazole to D-Lys(PYA)) peptide 1: CP[1Nal][dD]CM[hArg]DWSTP[Hyp]WC peptide 2: Ac-C[tBuAla]PE[dK](Pent4ynoyl)PYCFADPY[Nle]CA"
  pKd: 8.30
- binder: "heterotandem bicyclic peptide complex BCY7985 (BCY7732: N-terminal acetyl; Nle12; C-terminal Dap (diaminopropionic acid) bearing the linker; Ci, Cii, Ciii on TATA scaffold; BCY6169: N-terminal [PYA]-[B-Ala]-[Sar10]- (linker on PYA); HArg in the A-[HArg]-D extension; HyP1, dD10, HArg12; Ci, Cii, Ciii on TATA scaffold, also called EphA2-CD137 heterotandem BCY7985) peptide 1: AXDCXLVNPLCLHPDWXC peptide 2: ACIEEGQYCFADPYXC"
  pKd: 6.84
